Test: Plasma pharmacokinetics of PAC-1 and TMZ (LC-MS/MS, non-compartmental analysis)
Assay type: in vivo, human
Settings: human, plasma, po, 150 mg/m2, TMZ 150 mg/m^2 oral with PAC-1 500 mg/day; read-out: CL/F, geometric mean (geometric CV%) (converted)
PROPERTY LABEL: CL/F (mL/min/kg)
Give bare numbers, in mL/min/kg.

Return reported CL/F; argument: Cn1nnc2c(C(N)=O)ncn2c1=O [temozolomide, reference compound]
2.63

###

Assay: Plasma pharmacokinetics of PAC-1 and TMZ (LC-MS/MS, non-compartmental analysis)
Assay type: in vivo, human
Details: human, plasma, po, 150 mg/m2, TMZ 150 mg/m^2 oral with PAC-1 375 mg/day; read-out: Tmax, median (range)
PROPERTY LABEL: Tmax (h)
One number for each entry, in h.

Which value of Tmax has been reported for Cn1nnc2c(C(N)=O)ncn2c1=O [temozolomide, reference compound] in the records?
1
